TARGET ENTITY: human glucagon receptor (human) (UniProt P47871)
Sequence (P47871 26-477): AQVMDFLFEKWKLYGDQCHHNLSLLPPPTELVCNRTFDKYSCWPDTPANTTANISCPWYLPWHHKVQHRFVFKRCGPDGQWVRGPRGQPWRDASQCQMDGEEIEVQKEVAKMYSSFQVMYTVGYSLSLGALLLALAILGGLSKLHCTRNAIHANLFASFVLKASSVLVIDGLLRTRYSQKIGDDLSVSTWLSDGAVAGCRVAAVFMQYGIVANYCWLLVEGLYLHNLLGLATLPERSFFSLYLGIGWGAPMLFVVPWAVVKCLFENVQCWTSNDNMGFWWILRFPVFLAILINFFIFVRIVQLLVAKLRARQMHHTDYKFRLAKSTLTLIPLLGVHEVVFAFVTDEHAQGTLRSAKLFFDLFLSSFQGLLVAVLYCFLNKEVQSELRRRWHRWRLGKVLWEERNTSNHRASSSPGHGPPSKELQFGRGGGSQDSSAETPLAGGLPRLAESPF
EXPERIMENT SUMMARY: cell-based or functional assay
# Relative cAMP EC50 listing for each entry below
RECORDED ENDPOINT: Relative cAMP EC50 (nM)

INSERT INTO results (binder, measurement_unit, reported_value) VALUES
  ('YXQGTXTSDYSILLDKKAQXAFIEXLEEGGPSSGAPPPSEG (synthetic construct; SITE 2: note = 2-Aminoisobutyric Acid; SITE 6: note = alpha-methyl-2-fluoro-L-phenylalanine; SITE 17: note = Lysine is chemically modified through conjugation of the epsilon-amino group of the Lysine side chain with (2-[2-(2-Amino-ethoxy)-ethoxy]-acetyl)-(gamma-Glu)-CO-(CH2) 16-) [Example 411]', 'nM', 3.94),
  ('YXQGTXTSDXSIXLDXKAQXEFIEXLAEGGPSSGAPPPSGS (Aib, αMeF(2F), 4Pal, Orn, Me4Pal, αMeY; K (γGlu)2-C18 diacid; amide; synthetic construct; SITE 2: note = 2-Aminoisobutyric Acid; SITE 6: note = alpha-methyl-2-fluoro-L-phenylalanine; SITE 10: note = 3-(4-Pyridyl)-L-alanine; SITE 13: note = alpha-methyl-leucine; SITE 16: note = L-ornithine; SITE 17: note = Lysine is chemically modified through conjugation of the epsil) [Example 646]', 'nM', 23.1),
  ('YXQGTXTSDXSILLDKKAQXAFIEYLEEGGPSSGEPPPSGTGE (Aib, αMeF(2F), 4Pal; acylated K; C-terminal amide; synthetic construct; SITE 2: note = 2-Aminoisobutyric Acid; SITE 6: note = alpha-methyl-2-fluoro-L-phenylalanine; SITE 10: note = 3-(4-Pyridyl)-L-alanine; SITE 17: note = Lysine is chemically modified through conjugation of the epsilon-amino group of the Lysine side chain with (gamma-Glu)2-CO-(CH2)1) [Example 607]', 'nM', 8.91),
  ('YXQGTXTSDXXIXLDXKAQXEFIEXLIEGGPSSGAPPPSGSE (Aib, αMeF, 4Pal, αMeS, αMeL, Orn, Me4Pal, αMeY, acyl, amide; synthetic construct; SITE 2: note = 2-Aminoisobutyric Acid; SITE 6: note = alpha-methyl-L-phenylalanine; SITE 10: note = 3-(4-Pyridyl)-L-alanine; SITE 11: note = alpha-methyl-L-serine; SITE 13: note = alpha-methyl-leucine; SITE 16: note = L-ornithine; SITE 17: note = Lysine is chemically modified th) [Example 1166]', 'nM', 2.94),
  ('YXQGTXTSDXSILLDKKAQXAFIEYLEEGGPSSGAPPPEGTE (synthetic construct; SITE 2: note = 2-Aminoisobutyric Acid; SITE 6: note = alpha-methyl-2-fluoro-L-phenylalanine; SITE 10: note = 3-(4-Pyridyl)-L-alanine; SITE 17: note = Lysine is chemically modified through conjugation of the epsilon-amino group of the Lysine side chain with (gamma-Glu)2-CO-(CH2)1) [Example 659 (SEQ ID NO: 665)]', 'nM', 5.89),
  ('YXQGTFTSDXSRXLDKKAQXAFIEYLLEXGESSGAPPPSGS (synthetic construct; SITE 2: note = 2-Aminoisobutyric Acid; SITE 10: note = 3-(4-Pyridyl)-L-alanine; SITE 13: note = alpha-methyl-leucine; SITE 17: note = Lysine is chemically modified through conjugation of the epsilon-amino group of the Lysine side chain with (2-[2-(2-Amino-ethoxy)-ethoxy]-acetyl)) [Example 132]', 'nM', 2.63);
